Data origin: patent US20220409629A1

Experiment: Dog pharmacokinetics in vivo
Settings: plasma, male Beagle dogs, Dose: IV/PO 0.5/3 mg/kg
quantity_name: bioavailability (%)
Lab book: enter the figure in %, no units written.

Challenge: What value of bioavailability has been recorded for this entry: O=C(N[C@H]1N=C(c2ccccc2)c2cccc(F)c2NC1=O)c1cnn(C2CCOCC2)c1-c1ccc(NC2CC2)nc1F [Example 21]
Response given: 33.6

###

Assay: Liver microsomal stability, dog
Assay type: in vitro ADME
Conditions: pH 7.4; dog liver microsomes, 0.5 mg/mL protein, 1 μM compound, NADPH; >80% remaining at 45 min denoted >140; read-out: Liver Microsomal Stability: t1/2 (min); dog
# note: exactly 70 min is not below, so it is no (0); use yes (1) for half-life strictly under it

CCNc1ccc(-c2c(C(=O)N[C@H]3N=C(c4ccccc4)c4ccccc4NC3=O)c(C)nn2CC)c(F)n1; no (0)

Challenge: Check if half-life falls below 70 min for CCn1ncc(C(=O)N[C@H]2N=C(c3ccccc3)c3ccccc3NC2=O)c1-c1ncc(NC(C)C)cc1F .
Response given: no (0)

Challenge: Next entry: O=C(N[C@H]1N=C(c2ccccc2)c2ccccc2NC1=O)c1cnn(C2CCOCC2)c1-c1ccc(NC2CC2)nc1F
Response given: no (0)

Challenge: Next entry: CC(C)(C)n1cc(C(=O)N[C@H]2N=C(c3ccccc3)c3cccc(F)c3NC2=O)c(-c2ccc(NC3CC3)nc2F)n1
Response given: yes (1)

Challenge: Next entry: CCNc1ccc(-c2c(C(=O)N[C@H]3N=C(c4ccccc4)c4cccc(F)c4NC3=O)cnn2C2COC2)c(F)n1
Response given: no (0)

Challenge: Next entry: CCNc1ccc(-c2c(C(=O)N[C@H]3N=C(c4ccccc4)c4ccccc4NC3=O)cnn2C2CCOCC2)c(F)n1
Response given: no (0)
